# Protocol Description: folding enthalpy; higher = less favourable; fluorescence melt of hairpins on a sequencing array, two-state fit
# Condition Info: sodium 0.088 M
# folding enthalpy annotations

[
  {
    "Seq String": "GTTACTGGAAACAGTAGC (.(((((....))))).)",
    "folding enthalpy / kcal/mol": -24.2
  },
  {
    "Seq String": "GATCTACCTCTAGATC ((((((....))))))",
    "folding enthalpy / kcal/mol": -36.3
  },
  {
    "Seq String": "GGTGGGGGAAACCCTACC (((.(((....))).)))",
    "folding enthalpy / kcal/mol": -27.1
  },
  {
    "Seq String": "GCTACCCGAAAGGGAAGC (((.(((....))).)))",
    "folding enthalpy / kcal/mol": -32.5
  }
]

====

# folding enthalpy annotations
# Protocol Description: folding enthalpy; higher = less favourable; fluorescence melt of hairpins on a sequencing array, two-state fit
# Condition Info: sodium 0.088 M
Assay Readout: folding enthalpy

[
  {
    "Seq String": "GATCTATGGGTAGATC ((((((....))))))",
    "Assay Readout": "folding enthalpy",
    "Result": "-33.2 kcal/mol"
  },
  {
    "Seq String": "GGTGTGGAAACACACC ((((((....))))))",
    "Assay Readout": "folding enthalpy",
    "Result": "-30.2 kcal/mol"
  },
  {
    "Seq String": "GCTCGGCGAAAGCTGTGC ((.(.((....)).).))",
    "Assay Readout": "folding enthalpy",
    "Result": "-15.4 kcal/mol"
  },
  {
    "Seq String": "GAGCCCGGAAACGGGCCC (.(((((....))))).)",
    "Assay Readout": "folding enthalpy",
    "Result": "-7.26 kcal/mol"
  },
  {
    "Seq String": "GAGCGAACGAAAGTTCTC (((..(((....))))))",
    "Assay Readout": "folding enthalpy",
    "Result": "-9.38 kcal/mol"
  },
  {
    "Seq String": "GCGCCGCGAAAGCGAAGC ((..(((....)))..))",
    "Assay Readout": "folding enthalpy",
    "Result": "-32 kcal/mol"
  },
  {
    "Seq String": "GATCGCATACGCGATC ((((((....))))))",
    "Assay Readout": "folding enthalpy",
    "Result": "-36.1 kcal/mol"
  },
  {
    "Seq String": "GTGATTGGAAACAACCAC (((.(((....))).)))",
    "Assay Readout": "folding enthalpy",
    "Result": "-31.3 kcal/mol"
  },
  {
    "Seq String": "GTTCGGACGAAAGTCAAC (((..(((....))))))",
    "Assay Readout": "folding enthalpy",
    "Result": "-9.64 kcal/mol"
  },
  {
    "Seq String": "GAATGGGGAAACCCACTC ((.((((....)))).))",
    "Assay Readout": "folding enthalpy",
    "Result": "-13.1 kcal/mol"
  },
  {
    "Seq String": "GATCGGGGAAACCCGACC (.(((((....))))).)",
    "Assay Readout": "folding enthalpy",
    "Result": "-13.6 kcal/mol"
  },
  {
    "Seq String": "GGAATGGCGAAAGCCTCC (((..(((....))))))",
    "Assay Readout": "folding enthalpy",
    "Result": "-10.2 kcal/mol"
  },
  {
    "Seq String": "GCATCGCGAAAGCAATGC ((((.((....)).))))",
    "Assay Readout": "folding enthalpy",
    "Result": "-24.6 kcal/mol"
  },
  {
    "Seq String": "GGGAATACGAAAGTACCC (((..(((....))))))",
    "Assay Readout": "folding enthalpy",
    "Result": "-23 kcal/mol"
  },
  {
    "Seq String": "GATCTATCTTAGATC ((((((...))))))",
    "Assay Readout": "folding enthalpy",
    "Result": "-24.6 kcal/mol"
  },
  {
    "Seq String": "GCCGTTCCGAAAGGAGGC (((..(((....))))))",
    "Assay Readout": "folding enthalpy",
    "Result": "-24.4 kcal/mol"
  },
  {
    "Seq String": "GGAGGTCGAAAGACTCC (((.(((....))))))",
    "Assay Readout": "folding enthalpy",
    "Result": "-21.3 kcal/mol"
  },
  {
    "Seq String": "GACATACGAAAGTAGGTC (((.(((....))).)))",
    "Assay Readout": "folding enthalpy",
    "Result": "-39.1 kcal/mol"
  }
]

====

# folding enthalpy annotations
# Protocol Description: folding enthalpy; higher = less favourable; fluorescence melt of hairpins on a sequencing array, two-state fit
# Condition Info: sodium 0.088 M

[
  {
    "Seq String": "GCGAGCGGAAACGCCCGC (((.(((....))).)))",
    "folding enthalpy, kcal/mol": -35.4
  },
  {
    "Seq String": "GTTGCCGAAAGGCCCAAC ((((((....)))..)))",
    "folding enthalpy, kcal/mol": -6.79
  },
  {
    "Seq String": "GCTTACGCGAAAGCGAGC (((..(((....))))))",
    "folding enthalpy, kcal/mol": -12.7
  },
  {
    "Seq String": "GATCAGCCTACTGATC ((((((....))))))",
    "folding enthalpy, kcal/mol": -35.2
  },
  {
    "Seq String": "GCCACCGGAAACGGCGAC (.(.(((....))).).)",
    "folding enthalpy, kcal/mol": -14.2
  },
  {
    "Seq String": "GTTTCCCGAAAGGGGAAC (((.(((....))).)))",
    "folding enthalpy, kcal/mol": -36.2
  },
  {
    "Seq String": "GCGGGCGGAAACACCCGC (((((.(....).)))))",
    "folding enthalpy, kcal/mol": -44.2
  },
  {
    "Seq String": "GATCACCGTGGTGATC ((((((....))))))",
    "folding enthalpy, kcal/mol": -29.5
  },
  {
    "Seq String": "GGCTTCGAAAGAACGGCC ((((((....)))..)))",
    "folding enthalpy, kcal/mol": -27.9
  },
  {
    "Seq String": "GTTTCCGGAAACGGAGAC ((.((((....)))).))",
    "folding enthalpy, kcal/mol": -20.2
  },
  {
    "Seq String": "GTACGTCGAAAGACTTAC (((.(((....))).)))",
    "folding enthalpy, kcal/mol": -25.7
  },
  {
    "Seq String": "CGTGTCGGAAACGAAACG (((.(((....))).)))",
    "folding enthalpy, kcal/mol": -35.6
  },
  {
    "Seq String": "GATCGGCAGACCGATC ((((((....))))))",
    "folding enthalpy, kcal/mol": -38
  },
  {
    "Seq String": "GCGCGGCGAAAGCGGTGC ((.(.((....)).).))",
    "folding enthalpy, kcal/mol": -31.2
  },
  {
    "Seq String": "GCTATCGAAAGATGAGC ((((((....))).)))",
    "folding enthalpy, kcal/mol": -27.1
  },
  {
    "Seq String": "GTGCCGCGAAAGCGCCAC (((.(((....))).)))",
    "folding enthalpy, kcal/mol": -18.2
  },
  {
    "Seq String": "GCGCGGCGAAAGCGACGC (((..((....))..)))",
    "folding enthalpy, kcal/mol": -15.2
  },
  {
    "Seq String": "GCTCACGAAAGTGATAGC ((((((....)))..)))",
    "folding enthalpy, kcal/mol": -17.4
  },
  {
    "Seq String": "GCCGTGCGAAAGCATCGC ((..(((....)))..))",
    "folding enthalpy, kcal/mol": -11.1
  },
  {
    "Seq String": "GTCGTTCGAAAGAAAGAC (((.(((....))).)))",
    "folding enthalpy, kcal/mol": -31.2
  },
  {
    "Seq String": "GGTAAGGGAAACCTCACC (((.(((....))).)))",
    "folding enthalpy, kcal/mol": -21.9
  },
  {
    "Seq String": "GCTGTGGGAAACCACGGC ((.((((....)))).))",
    "folding enthalpy, kcal/mol": -36.2
  },
  {
    "Seq String": "GCGGGAGGAAACTCCCAC (.(((((....))))).)",
    "folding enthalpy, kcal/mol": -13.7
  },
  {
    "Seq String": "GTGATAGGAAACTGTCAC ((((.((....)).))))",
    "folding enthalpy, kcal/mol": -36.5
  },
  {
    "Seq String": "GCTGACGGAAACATCAGC (((((.(....).)))))",
    "folding enthalpy, kcal/mol": -35.1
  },
  {
    "Seq String": "GATCTAAACTAGATC ((((((...))))))",
    "folding enthalpy, kcal/mol": -23.9
  },
  {
    "Seq String": "GCAAGCGAAAGCTCATGC ((((((....)))..)))",
    "folding enthalpy, kcal/mol": -12.5
  },
  {
    "Seq String": "GTTTCTGAAAAGAAAC ((((((....))))))",
    "folding enthalpy, kcal/mol": -37
  },
  {
    "Seq String": "GCTCTCGAAAGAGAGAGC ((((((....)))..)))",
    "folding enthalpy, kcal/mol": -19.5
  },
  {
    "Seq String": "GATCTATTACTAGATC ((((((....))))))",
    "folding enthalpy, kcal/mol": -32.4
  },
  {
    "Seq String": "GTGGCCGAAAGGCCGCAC ((((((....)))..)))",
    "folding enthalpy, kcal/mol": -9.1
  },
  {
    "Seq String": "GCTTTGGGAAACCAAAAC (.(((((....))))).)",
    "folding enthalpy, kcal/mol": -19.8
  },
  {
    "Seq String": "GCGTTGCGAAAGCTGCGC (((..((....))..)))",
    "folding enthalpy, kcal/mol": -36.3
  },
  {
    "Seq String": "GATCGGAGGACCGATC ((((((....))))))",
    "folding enthalpy, kcal/mol": -31.2
  },
  {
    "Seq String": "GTTCCAGGAAACCGGAAC (((((.(....).)))))",
    "folding enthalpy, kcal/mol": -45.4
  },
  {
    "Seq String": "GCGCGGTCGAAAGACCGC (((..(((....))))))",
    "folding enthalpy, kcal/mol": -5.31
  },
  {
    "Seq String": "GTCGATGAAAATCGAC ((((((....))))))",
    "folding enthalpy, kcal/mol": -39.4
  },
  {
    "Seq String": "GTGGCAGGAAACTGCTAC ((.((((....)))).))",
    "folding enthalpy, kcal/mol": -26.4
  },
  {
    "Seq String": "GATGTCCCGAAAGGGATC (((..(((....))))))",
    "folding enthalpy, kcal/mol": -9.1
  },
  {
    "Seq String": "CTCTTGAAAAAGAG (((((....)))))",
    "folding enthalpy, kcal/mol": -10.4
  },
  {
    "Seq String": "GTGAGAGGAAACTCTCAC (((((((....)))))))",
    "folding enthalpy, kcal/mol": -41.8
  },
  {
    "Seq String": "GATCGCCAGCGCGATC ((((((....))))))",
    "folding enthalpy, kcal/mol": -33.3
  },
  {
    "Seq String": "GGGCCTACGAAAGTACCC (((..(((....))))))",
    "folding enthalpy, kcal/mol": -9.06
  },
  {
    "Seq String": "GCTATGGAAACATAGC ((((((....))))))",
    "folding enthalpy, kcal/mol": -35.4
  },
  {
    "Seq String": "GATCCCTCGGGGGATC ((((((....))))))",
    "folding enthalpy, kcal/mol": -37.4
  },
  {
    "Seq String": "GATCTTGGAAACAAGGTC ((.((((....)))).))",
    "folding enthalpy, kcal/mol": -33.9
  }
]
